The molecules listed here are annotated with their IC50.
- TARGET_OF_ASSAY: D-1 receptor
- ASSAY_REMARKS: D-1 antagonist activity in adenylate cyclase assay (antagonism of dopamine-induced increase in cAMP)
- CONDITION_SUMMARY: 10 μM dopamine; goldfish retina or rat striatum homogenate
Counter-ions that a name gives are not always drawn.
MEASURED_PARAMETER: IC50

>>> experimental_result("COc1cc2c(cc1O)C1(CCOc3ccccc31)CN(C)CC2 (centres unmarked) [Example 135, hydrochloride]")
"0.96 µM"
>>> experimental_result("CN1CCc2ccc(O)cc2C2(CCOc3ccccc32)C1 (centres unmarked) [Example 136, hydrochloride]")
"4.34 µM"
>>> experimental_result("CN1CCc2cc(Br)c(O)cc2C2(CCOc3ccccc32)C1 (centres unmarked) [Example 137, hydrochloride]")
"0.14 µM"
>>> experimental_result("Oc1cc2c(cc1Br)CCNCC21CCCc2ccccc21 (centres unmarked) [Example 30, hydrochloride]")
"0.92 µM"
>>> experimental_result("COc1cc2c(cc1O)C1(CCc3ccccc31)CNCC2 (centres unmarked) [Example 24, hydrochloride]")
"0.53 µM"
>>> experimental_result("CN1CCc2cc(Br)c(O)cc2C2(CCCc3ccccc32)C1 (centres unmarked) [Example 31, hydrochloride]")
"0.14 µM"
>>> experimental_result("Oc1cc2c(cc1Br)CCNCC21CCc2ccccc21 (centres unmarked) [Example 17, hydrochloride]")
"0.83 µM"
>>> experimental_result("CN1CCc2ccc(O)cc2C2(CCc3ccccc32)C1 (centres unmarked) [Example 14, hydrobromide]")
"0.58 µM"
